Below, each entry is listed alongside its reported IC50.
Target: Human DYRK1A (Homo sapiens)
Construct: purchased Invitrogen PV3997
Assay: DYRK1A Kinase TR-FRET (IMAP-Tb) Assay
Format: biochemical
Settings: TR-FRET (IMAP-Tb); ATP 70 μM; 37° C. for 60 minutes; averages of multiple runs; read-out: Enzyme IC50 (μM) DYRK1A
Counter-ions that a name gives are not always drawn.
quantity_kind: IC50 (µM)

molecule: Clc1ccccc1CNc1cccc(-c2n[nH]c3nc(NCCN4CCOCC4)ncc23)n1 [Example 59]
quantity_kind: IC50
units_label: µM
assay_value: 0.663

molecule: NCC(Nc1nccc(-c2n[nH]c3nc(N[C@H]4CC[C@H](N)CC4)ncc23)n1)c1ccccc1 (stereo partly shown) [Example 67, hydrochloride]
quantity_kind: IC50
units_label: µM
assay_value: 0.0046

molecule: Clc1cccc(CNc2nccc(-c3n[nH]c4nc(NCCN5CCOCC5)ncc34)n2)c1 [Example 62, hydrochloride]
quantity_kind: IC50
units_label: µM
assay_value: 0.0384

molecule: c1cc(-c2n[nH]c3nc(NCCN4CCOCC4)ncc23)nc(NCc2ccsc2)n1 [Example 77, hydrochloride]
quantity_kind: IC50
units_label: µM
assay_value: 0.0129

molecule: Clc1ccc(CNc2cccc(-c3n[nH]c4nc(NCCN5CCOCC5)ncc34)n2)cc1 [Example 48]
quantity_kind: IC50
units_label: µM
assay_value: 2.96

molecule: N[C@H]1CC[C@H](Nc2ncc3c(-c4ccnc(NCc5ccc(Cl)cc5)n4)n[nH]c3n2)CC1 [Example 72, hydrochloride]
quantity_kind: IC50
units_label: µM
assay_value: 0.013

molecule: c1ccc(CNc2cccc(-c3n[nH]c4nc(NCCN5CCOCC5)ncc34)n2)cc1 [Example 45]
quantity_kind: IC50
units_label: µM
assay_value: 2.31

====

Target: Human DYRK1B (Homo sapiens)
Construct: purchased Invitrogen PR8350B (former PV4649)
Assay: DYRK1B Kinase TR-FRET (IMAP-Tb) Assay
Assay type: biochemical
pIC50: −log10 of the molar value. Where a name gives a salt, the structure may show the parent alone.

compound: NCC(Nc1nccc(-c2n[nH]c3nc(NCCN4CCOCC4)ncc23)n1)c1ccccc1 (stereo not shown) [Example 83, hydrochloride]
pIC50: 7.74

====

Molecular target: Human DYRK1B (Homo sapiens)
Construct: purchased Invitrogen PR8350B (former PV4649)
Experiment: DYRK1B Kinase TR-FRET (IMAP-Tb) Assay
Format: biochemical
Settings: TR-FRET (IMAP-Tb); ATP 70 μM; 37° C. for 60 minutes; averages of multiple runs; read-out: Enzyme IC50 (μM) DYRK1B
Counter-ions that a name gives are not always drawn.
Below, each entry is listed alongside its reported IC50.
quantity_kind: IC50 (µM)

compound: N[C@H]1CC[C@H](Nc2ncc3c(-c4ccnc(NCc5cccc(F)c5)n4)n[nH]c3n2)CC1 [Example 85, hydrochloride]
quantity_kind: IC50
result_operator: <
assay_value: 0.0046
//
compound: c1ccc(CNc2nccc(-c3n[nH]c4nc(NCCN5CCOCC5)ncc34)n2)cc1 [Example 61, hydrochloride]
quantity_kind: IC50
result_operator: =
assay_value: 0.0958
//
compound: N[C@H]1CC[C@H](Nc2ncc3c(-c4cccc(NCc5ccsc5)c4)n[nH]c3n2)CC1 [Example 58]
quantity_kind: IC50
result_operator: =
assay_value: 0.762
//
compound: Clc1cccc(CNc2nccc(-c3n[nH]c4nc(NCCN5CCCCC5)ncc34)n2)c1 [Example 93, hydrochloride]
quantity_kind: IC50
result_operator: =
assay_value: 0.93

====

Below, each entry is listed alongside its reported log10(IC50).
Target: Human DYRK1A (Homo sapiens, UniProt Q13627)
Construct: purchased Invitrogen PV3997
Test: DYRK1A Kinase TR-FRET (IMAP-Tb) Assay
Format: biochemical
Settings: TR-FRET (IMAP-Tb); ATP 70 μM; 37° C. for 60 minutes; averages of multiple runs; read-out: Enzyme IC50 (μM) DYRK1A
Counter-ions that a name gives are not always drawn.
quantity_kind: log10(IC50) (log10 of the value in µM)

molecule: Clc1cccc(CNc2nccc(-c3n[nH]c4nc(NCC5CCNCC5)ncc34)n2)c1 [Example 88, hydrochloride]
log10(IC50): -2.05
//
molecule: Clc1cccc(CNc2nccc(-c3n[nH]c4nc(NCCN5CCNCC5)ncc34)n2)c1 [Example 92, hydrochloride]
log10(IC50): -1.12
//
molecule: N[C@H]1CC[C@@H](Nc2ncc3c(-c4ccnc(NCc5cccc(Cl)c5)n4)n[nH]c3n2)CC1 [Example 89, hydrochloride]
log10(IC50): -0.38
//
molecule: NCCC(Nc1nccc(-c2n[nH]c3nc(N[C@H]4CC[C@H](N)CC4)ncc23)n1)c1ccccc1 (stereo partly shown) [Example 68, hydrochloride]
log10(IC50): -1.96
//
molecule: NCCC(Nc1nccc(-c2n[nH]c3nc(NCCN4CCOCC4)ncc23)n1)c1ccccc1 (stereo not shown) [Example 81, hydrochloride]
log10(IC50): -0.95
//
molecule: N[C@H]1CC[C@H](Nc2ncc3c(-c4ccnc(NCc5ccsc5)n4)n[nH]c3n2)CC1 [Example 66, hydrochloride]
log10(IC50): -1.83
//
molecule: NCC(Nc1nccc(-c2n[nH]c3nc(NCCN4CCOCC4)ncc23)n1)c1cccc(Cl)c1 (stereo not shown) [Example 76, hydrochloride]
log10(IC50): -2.12
//
molecule: NCCC(Nc1nccc(-c2n[nH]c3nc(N[C@H]4CC[C@H](N)CC4)ncc23)n1)c1cccc(Cl)c1 (stereo partly shown) [Example 80, hydrochloride]
log10(IC50): -2.34
//
molecule: N[C@H]1CC[C@H](Nc2ncc3c(-c4ccnc(NCc5ccccc5)n4)n[nH]c3n2)CC1 [Example 70, hydrochloride]
log10(IC50): -2.21
//
molecule: CN(C)CCNc1ncc2c(-c3ccnc(NCc4cccc(Cl)c4)n3)n[nH]c2n1 [Example 87, hydrochloride]
log10(IC50): -0.51
//
molecule: N[C@H]1CC[C@H](Nc2ncc3c(-c4cccc(NCc5ccsc5)c4)n[nH]c3n2)CC1
log10(IC50): 0.42
//
molecule: OCCNc1ncc2c(-c3ccnc(NCc4cccc(Cl)c4)n3)n[nH]c2n1 [Example 91, hydrochloride]
log10(IC50): -0.60
//
molecule: NCCC(Nc1cccc(-c2n[nH]c3nc(NCCN4CCOCC4)ncc23)c1)c1ccccc1 (stereo not shown) [Example 73, hydrochloride]
log10(IC50): 0.69
//
molecule: NCC(Nc1nccc(-c2n[nH]c3nc(N[C@H]4CC[C@H](N)CC4)ncc23)n1)c1cccc(Cl)c1 (stereo partly shown) [Example 78, hydrochloride]
log10(IC50): -2.34
//
molecule: N[C@H]1CC[C@H](Nc2ncc3c(-c4cccc(NCc5ccccc5)n4)n[nH]c3n2)CC1
log10(IC50): -1.91
//
molecule: Clc1ccc(CNc2cccc(-c3n[nH]c4nc(NCCN5CCOCC5)ncc34)c2)cc1
log10(IC50): 0.69
//
molecule: Clc1ccccc1CNc1cccc(-c2n[nH]c3nc(NCCN4CCOCC4)ncc23)c1
log10(IC50): 0.42
//
molecule: NCCC(Nc1cccc(-c2n[nH]c3nc(NCCN4CCOCC4)ncc23)n1)c1ccccc1 (stereo not shown) [Example 75, hydrochloride]
log10(IC50): 0.41
//
molecule: Clc1cccc(CNc2nccc(-c3n[nH]c4nc(NCCN5CCCCC5)ncc34)n2)c1 [Example 93, hydrochloride]
log10(IC50): -0.34
//
molecule: NCCC(Nc1cccc(-c2n[nH]c3nc(N[C@H]4CC[C@H](N)CC4)ncc23)c1)c1ccccc1 (stereo partly shown) [Example 79, hydrochloride]
log10(IC50): 0.05
//
molecule: N[C@H]1CC[C@H](Nc2ncc3c(-c4cccc(NCc5cccs5)c4)n[nH]c3n2)CC1
log10(IC50): -0.39
//
molecule: N[C@H]1CC[C@H](Nc2ncc3c(-c4ccnc(NCc5cccc(Cl)c5)n4)n[nH]c3n2)CC1 [Example 71, hydrochloride]
log10(IC50): -2.34

====

Target: Human DYRK1B (Homo sapiens, UniProt Q9Y463)
Construct: purchased Invitrogen PR8350B (former PV4649)
Sequence (Q9Y463 whole entry): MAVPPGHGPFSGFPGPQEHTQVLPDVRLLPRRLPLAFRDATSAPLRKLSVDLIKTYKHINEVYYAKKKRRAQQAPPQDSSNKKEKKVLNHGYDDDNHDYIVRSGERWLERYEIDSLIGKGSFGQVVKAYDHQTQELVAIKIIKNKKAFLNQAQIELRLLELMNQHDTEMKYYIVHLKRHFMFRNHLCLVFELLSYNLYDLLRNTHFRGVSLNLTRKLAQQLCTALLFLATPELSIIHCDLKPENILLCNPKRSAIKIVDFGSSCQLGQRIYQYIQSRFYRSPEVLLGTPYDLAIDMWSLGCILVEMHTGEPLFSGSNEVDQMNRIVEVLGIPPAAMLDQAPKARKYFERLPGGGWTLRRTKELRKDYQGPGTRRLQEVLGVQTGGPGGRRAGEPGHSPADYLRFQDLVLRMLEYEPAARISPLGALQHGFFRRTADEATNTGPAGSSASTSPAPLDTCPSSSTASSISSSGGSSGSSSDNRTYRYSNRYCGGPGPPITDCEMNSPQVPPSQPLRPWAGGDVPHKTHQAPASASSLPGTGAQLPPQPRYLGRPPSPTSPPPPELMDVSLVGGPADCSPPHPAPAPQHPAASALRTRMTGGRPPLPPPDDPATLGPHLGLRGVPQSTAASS
Experiment: DYRK1B Kinase TR-FRET (IMAP-Tb) Assay
Format: biochemical
Details: TR-FRET (IMAP-Tb); ATP 70 μM; 37° C. for 60 minutes; averages of multiple runs; read-out: Enzyme IC50 (μM) DYRK1B
Counter-ions that a name gives are not always drawn.

compound: Clc1ccccc1CNc1cccc(-c2n[nH]c3nc(NCCN4CCOCC4)ncc23)c1
result_operator: =
IC50 / µM: 1.55
//
compound: N[C@H]1CC[C@H](Nc2ncc3c(-c4ccnc(NCc5cccc(Cl)c5)n4)n[nH]c3n2)CC1 [Example 71, hydrochloride]
result_operator: =
IC50 / µM: 0.006
//
compound: N[C@H]1CC[C@H](Nc2ncc3c(-c4ccnc(NCc5ccccc5)n4)n[nH]c3n2)CC1 [Example 70, hydrochloride]
result_operator: =
IC50 / µM: 0.0125
//
compound: Clc1ccccc1CNc1cccc(-c2n[nH]c3nc(NCCN4CCOCC4)ncc23)n1
result_operator: =
IC50 / µM: 0.924
//
compound: NCC(Nc1nccc(-c2n[nH]c3nc(N[C@H]4CC[C@H](N)CC4)ncc23)n1)c1cccc(Cl)c1 (stereo partly shown) [Example 78, hydrochloride]
result_operator: <
IC50 / µM: 0.0046
//
compound: Clc1cccc(CNc2cccc(-c3n[nH]c4nc(NCCN5CCOCC5)ncc34)n2)c1
result_operator: =
IC50 / µM: 1.06
//
compound: NCC(Nc1nccc(-c2n[nH]c3nc(NCCN4CCOCC4)ncc23)n1)c1ccsc1 (stereo not shown) [Example 82, hydrochloride]
result_operator: =
IC50 / µM: 0.012
